biological target: IDH1 R132H (Homo sapiens, UniProt O75874, R132H); assay: In vitro assay for IDH1 R132H inhibitors (NADPH/aKG, resazurin detection); assay type: biochemical; conditions: Table 4B; 0.2 μg/ml IDH1 R132H, 50 minutes at room temperature; read-out: IC50, IDH1 R132H Inhibition
Sequence (O75874 whole entry R132H): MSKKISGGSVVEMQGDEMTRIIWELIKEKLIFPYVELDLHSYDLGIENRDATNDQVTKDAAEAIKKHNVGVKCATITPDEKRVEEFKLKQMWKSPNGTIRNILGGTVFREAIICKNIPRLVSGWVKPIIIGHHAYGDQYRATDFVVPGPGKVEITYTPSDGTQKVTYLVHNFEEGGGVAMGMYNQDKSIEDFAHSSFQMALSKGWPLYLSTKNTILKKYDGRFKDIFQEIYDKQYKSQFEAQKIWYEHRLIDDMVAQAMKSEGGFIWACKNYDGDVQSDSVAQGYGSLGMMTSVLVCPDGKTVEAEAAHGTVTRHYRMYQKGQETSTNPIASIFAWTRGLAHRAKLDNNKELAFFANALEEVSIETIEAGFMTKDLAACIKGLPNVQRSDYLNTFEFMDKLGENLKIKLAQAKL
pIC50: −log10 of the molar value.
Each item that follows carries a reported pIC50.

Below: 4 compounds and their reported pIC50.
>  <compound>
N#Cc1ccc(NCC(=O)N(c2cccc(F)c2)C(C(=O)NC2CCCCC2)c2ccccc2Cl)cc1 (stereo not drawn) [Compound 322]

>  <pIC50>
≥ 7.00

$$$$
>  <compound>
Cc1ccccc1[C@@H](C(=O)NC1CCCCC1)N(C(=O)[C@H]1CCCCN1C(=O)OC(C)(C)C)c1cccc(F)c1 [Compound 332]

>  <pIC50>
6.00 to 7.00

$$$$
>  <compound>
COC(=O)N1CCN(CC(=O)N(c2cccc(F)c2)C(C(=O)NC2CCCCC2)c2ccccc2C)CC1 (stereo not drawn) [Compound 185]

>  <pIC50>
≥ 7.00

$$$$
>  <compound>
Cc1ccccc1C(C(=O)NC1CC(F)(F)C1)N(C(=O)CNc1cccnc1F)c1cccc(F)c1 (stereo not drawn) [Compound 381]

>  <pIC50>
≥ 7.00

$$$$

Next up:
Please look at this compound and report its pIC50: Cc1ccccc1[C@@H](C(=O)NC1CCCCC1)N(C(=O)[C@@H]1CCCCN1S(C)(=O)=O)c1cccc(F)c1 [Compound 349]
6.00 to 7.00

---

biological target: IDH1 R132H (Homo sapiens, UniProt O75874, R132H); assay: In vitro assay for IDH1 R132H inhibitors (NADPH/aKG, resazurin detection); format: biochemical; details: Table 4B; 0.2 μg/ml IDH1 R132H, 50 minutes at room temperature; read-out: IC50, IDH1 R132H Inhibition
measured_endpoint: IC50

>  <molecule>
O=C(NC1CCCCC1)C(c1c(F)ccc(F)c1Cl)N(C(=O)Cc1cccs1)c1cccc(F)c1 (stereo not drawn)

>  <IC50>
100 to 1000 nM

$$$$
>  <molecule>
COC(=O)NCC(=O)N(Cc1cccs1)C(C(=O)NC1CCCCC1)c1ccccc1C (stereo not drawn)

>  <IC50>
100 to 1000 nM

$$$$

Next up:
Please look at this molecule and report its IC50: Cc1ccccc1C(C(=O)NC1CCCCC1)N(C(=O)COc1ccccc1)c1cccc(F)c1 (stereo not drawn)
100 to 1000 nM

---

molecular target: IDH1 R132H (Homo sapiens, UniProt O75874, R132H); experiment: In vitro assay for IDH1 R132H inhibitors (NADPH/aKG, resazurin detection); assay type: biochemical; details: Table 4A; 0.2 μg/ml IDH1 R132H, 50 minutes at room temperature; read-out: IC50 (uM), IDH1 R132H Inhibition
measured_endpoint: IC50

Below: 5 molecules and their reported IC50.
>  <molecule>
O=C(NC1CCCCC1)C(c1cccs1)N(C(=O)Cc1cccs1)c1cccc(F)c1 (stereo not shown)

>  <system_name>
IDH1 R132H (Homo sapiens, UniProt O75874, R132H)

>  <measured_endpoint>
IC50

>  <result>
0.1 to 1 µM

$$$$
>  <molecule>
O=C(NC1CCCCC1)C(c1ccccc1)N(C(=O)Cc1cccs1)c1cccc(F)c1 (stereo not shown)

>  <system_name>
IDH1 R132H (Homo sapiens, UniProt O75874, R132H)

>  <measured_endpoint>
IC50

>  <result>
0.1 to 1 µM

$$$$
>  <molecule>
O=C(NC1CCCCC1)C(c1ccccc1F)N(C(=O)Cc1cccs1)c1cccc(F)c1 (stereo not shown)

>  <system_name>
IDH1 R132H (Homo sapiens, UniProt O75874, R132H)

>  <measured_endpoint>
IC50

>  <result>
≤ 0.1 µM

$$$$
>  <molecule>
O=C(NC1CCCCC1)C(c1ccccc1Cl)N(C(=O)c1ccccn1)c1ccccc1 (stereo not shown)

>  <system_name>
IDH1 R132H (Homo sapiens, UniProt O75874, R132H)

>  <measured_endpoint>
IC50

>  <result>
0.1 to 1 µM

$$$$
>  <molecule>
Cc1ccccc1C(C(=O)NC1CCCCC1)N(C(=O)c1ccccn1)c1cccc(F)c1 (stereo not shown)

>  <system_name>
IDH1 R132H (Homo sapiens, UniProt O75874, R132H)

>  <measured_endpoint>
IC50

>  <result>
1 to 10 µM

$$$$

Please look at this molecule and report its IC50: N#Cc1ccc(C(C(=O)NC2CCCC2)N(C(=O)Cc2cccs2)c2cccc(F)c2)cc1 (stereo not shown)
≥ 100 µM
